Test: Human HepG2 cell viability assay in 384 well format
Type: toxicity, cell-based
Design: dose 125 nL, time 70.5 hour; concentration not given beside the values
Conditions: HepG2 cells, read-out: Inhibition
property.label: cytotoxicity at 70.5 h (%)

In [3]: df
Out[3]:
                                   compound  assay_value
0  CN(CCc1cccs1)C(=O)Nc1ccc2c(c1)C(=O)N(C)CC2        -7.01
1  CCn1cc2c(n1)C(COC)CN(C(=O)CCOc1ccccc1)C2 (stereo unspecified)        -12.3
2  Cn1nc2c(cc1=O)CN(Cc1coc(-c3ccc(F)cc3)n1)CC2         14.8
3   COc1ccccc1-n1cc(C(=O)NCCn2nc(C)nc2C)cn1        -9.92
4  COCC1CC2(CCN(C(=O)c3ccco3)CC2)CN1C(C)C (stereo unspecified)          -13
5  CC(CCNC(=O)N1CCC1)N(C)C(=O)OC(C)(C)C (stereo unspecified)       -0.749

----------
Quick reference: cytotoxicity at 70.5 h of the listed items.
Test: Human HepG2 cell viability assay in 384 well format
Format: toxicity, cell-based
Set-up: dose 125 nL, time 70.5 hour; concentration not given beside the values
Conditions: HepG2 cells, read-out: Inhibition
property.label: cytotoxicity at 70.5 h (%)

In [3]: df
Out[3]:
                                    compound  assay_value
 0  Cc1nc(C2(O)CCCNCC2)sc1CCOc1ccccc1Cl (centres undefined)         1.01
 1            O=c1cc(N2CCNCC2)cnn1CCCn1cccn1        -9.24
 2       c1cncc(CN2CCCn3nnc(CN4CCCC4)c3C2)c1        -64.2
 3       COc1ccc(CNCc2ccnc(N3CCCCC3)c2)cc1OC        -4.98
 4  CN(C)CCCNC(=O)CNC(=O)N1CCc2c([nH]c3ccccc23)C1         35.2
 5       CN(C)C(=O)Cc1ccccc1NCc1cc(C#N)ccc1F        -2.64
 6  Cc1csc(N2CCN(Cc3cnc(C)s3)CC2C)n1 (centres undefined)        -2.09
 7  Cc1ccc2c(c1)C1(CCN(C(=O)C3CC3)CC1)CC2N1CCOCC1 (centres undefined)        -3.95
 8  O=C(NCC1Cn2nnc(-c3ccncc3)c2CO1)c1ccc[nH]1 (centres undefined)        -5.04
 9  CC(C)=CCN1CCN(Cc2nc3ccccc3[nH]2)[C@H]2CS(=O)(=O)C[C@H]21        -8.69
10       CCc1nnc2n1CCN(CC(=O)Nc1cc(C)nn1C)C2        -4.31
11        c1nc2c(c(C3CC3)n1)CCN(Cc1ccoc1)CC2         18.1
12            COCCCNc1cc(C(=O)N2CCOCC2)ccc1C        -17.5
13  CC(C)(C)C(=O)N1CCCC1c1nccnc1Cl (centres undefined)        -8.54
14  CCc1nccn1C1CCCN(C(=O)c2ccoc2C)C1 (centres undefined)         1.06
15  CS(=O)(=O)N1CCO[C@@H]2CN(Cc3ccc(F)cc3)C[C@@H]2C1        -6.95
16       COCCOc1ncccc1C(=O)Nc1c(C)cnn1CC1CC1         8.78
17  COc1cc(C2CC(=O)Nc3c2nc2n3CCCC2)cc(OC)c1O (centres undefined)         -5.3
18           Cn1ccnc1CN1CCN(Cc2ccccc2C#N)CC1         6.78
19  CSc1ccc(CN(C)C(=O)c2cc3c([nH]c2=O)CCCC3=O)cc1        -2.82
20  O=C1CCC2(CCCN(C(=O)c3ccccn3)CC2)N1 (centres undefined)        -1.45
21  Cc1cnn(CC2CCCN2C(=O)CN(C)C2CC2)c1 (centres undefined)        -11.8
22  CCc1[nH]ncc1C(=O)N1CCCC(n2cccn2)C1 (centres undefined)         3.94
23  O=C1CC(c2cccnc2)c2c(c(C(=O)O)cn2-c2ccccc2)N1 (centres undefined)        -1.92

----------
Experiment: Human HepG2 cell viability assay in 384 well format
Type: toxicity, cell-based
Parameters: dose 125 nL, time 70.5 hour; concentration not given beside the values
Details: HepG2 cells, read-out: Inhibition
property.label: cytotoxicity at 70.5 h (%)

                                   compound  u  assay_value
0  COc1cccc(CNc2cc(N3CCCC3CO)ncn2)n1 (stereo unspecified)  %       -0.345
1          C[C@H](O)CNc1cc(-c2cn[nH]c2)ncn1  %         6.37
2  CCOc1ccc(S(=O)(=O)NCCc2ccc(N(C)C)cc2)cc1C  %         -3.6
3  Cc1ccc(CN2CCC3(CC2)CN(c2ccccc2)C(=O)CO3)o1  %         23.7
4    COc1ccccc1OC1CCN(C(=O)c2cnc(C)cc2C)CC1  %           -5
5  CNC(=O)CN(C)S(=O)(=O)c1c(Br)cc2[nH]c(=O)oc2c1Cl  %         -3.9

----------
cytotoxicity at 70.5 h listing for selected compounds.
Assay: Human HepG2 cell viability assay in 384 well format
Format: toxicity, cell-based
Set-up: dose 125 nL, time 70.5 hour; concentration not given beside the values
Conditions: HepG2 cells, read-out: Inhibition
property.label: cytotoxicity at 70.5 h (%)

>>> print(df.to_string())
                                    compound  u  assay_value
 0  Cn1cc(CN2CCCC3(CCN(Cc4ccncc4)C3=O)C2)cn1 (stereo unspecified)  %        -10.1
 1        Cc1nc(CN(C)Cc2nc(-c3ccccc3)no2)co1  %        -1.63
 2  CCCc1nc(CN2CCCC(c3noc(C4CC4)n3)C2)no1 (stereo unspecified)  %        -4.77
 3  COc1ccc(C(=O)NC2CC2)c(OC2CCN(CCCSC)CC2)c1  %        -1.03
 4  NS(=O)(=O)N1CCc2ccc(NC(=O)Cc3ccc(F)cc3)cc21  %         6.47
 5           Cc1ccc(OC2CCN(CCn3cncn3)CC2)cc1  %        -10.7
 6  CCCS(=O)(=O)NC1CCN(c2nnc(C)c(C)c2C#N)CC1  %        -6.18
 7    O=C(Cc1ccc(F)cc1)NCCNc1cc(N2CCCC2)cnn1  %         30.6
 8    O=C(NCC1(Sc2ccccc2)CC1)c1ccc(=O)[nH]n1  %        -6.34
 9  CCc1nnsc1C(=O)N1CCN(CC(O)CC)CC1 (stereo unspecified)  %        -10.3
10  Cc1ncc(C(=O)N2CCC(N3C[C@@H](C)O[C@@H](C)C3)CC2)c(=O)[nH]1  %         8.83

----------
The following molecules are listed with their measured cytotoxicity at 70.5 h values.
Assay: Human HepG2 cell viability assay in 384 well format
Type: toxicity, cell-based
Parameters: dose 125 nL, time 70.5 hour; concentration not given beside the values
Conditions: HepG2 cells, read-out: Inhibition
property.label: cytotoxicity at 70.5 h (%)

>>> df
                                    molecule          property_label  assay_value
 0  CC(=O)N1CCC(N2C[C@@H](F)[C@@H](OCc3nc4ncccc4[nH]3)C2)CC1  cytotoxicity at 70.5 h        -2.27
 1  CCSCC(C)NCc1nncn1C1CCCCC1 (centres undefined)  cytotoxicity at 70.5 h        -2.76
 2  Cc1cnccc1N1CCN(C(=O)C2CC3(CCNCC3)CN2)CC1 (centres undefined)  cytotoxicity at 70.5 h        -5.99
 3  COc1ccc(CN2CCC3(CC2)CN(c2ccccn2)CCO3)cc1  cytotoxicity at 70.5 h         2.33
 4       Cc1cccc(NC(=O)c2cncc(C3CCNCC3)n2)n1  cytotoxicity at 70.5 h        -5.87
 5  Cc1ccc(-c2cc(C(=O)NCC3CCOC3)n[nH]2)s1 (centres undefined)  cytotoxicity at 70.5 h         20.2
 6        Cc1ccnc2c1NC(=O)CN2C(=O)CCc1ccccc1  cytotoxicity at 70.5 h        -13.4
 7   O=C(c1cnccn1)N1CCC2(CCN(Cc3ccsc3)C2)CC1  cytotoxicity at 70.5 h        -5.07
 8  CCc1nc(C2CCCN(C(=O)c3ccc(Cl)cc3)C2)no1 (centres undefined)  cytotoxicity at 70.5 h         5.79
 9  COC(=O)CS(=O)(=O)CCC(=O)N1CCCC1c1ccsc1 (centres undefined)  cytotoxicity at 70.5 h        -2.16
10        O=C(CCN1CCCN(c2nccs2)CC1)Nc1ccccc1  cytotoxicity at 70.5 h         28.8
11  CO[C@@H]1CCN(Cc2ccc(C)o2)[C@H]1Cc1ccccc1  cytotoxicity at 70.5 h         -1.2
12  O=C(c1cnccn1)N1CCOCC2(CCN(C3CCOCC3)C2)C1 (centres undefined)  cytotoxicity at 70.5 h        -15.5
13  CS(=O)(=O)N1CCC(O)(Cn2c(C3CC3)nc3ccccc3c2=O)CC1  cytotoxicity at 70.5 h        -1.88
14  Cc1noc([C@@]23CCO[C@@H]2CCN(C(=O)c2cc(C)c(C)s2)C3)n1  cytotoxicity at 70.5 h        -0.38
15     CCCn1nccc1C(=O)N1CCCN(CCCc2ccccc2)CC1  cytotoxicity at 70.5 h         -7.2
16  CSCCC(O)C(=O)N1CCN(Cc2cccc(Cl)c2)CC1 (centres undefined)  cytotoxicity at 70.5 h        -12.9
17  CN1CCCC[C@@H]2[C@H]1[C@@H](c1ccccc1)CCN2C(=O)c1ccncc1  cytotoxicity at 70.5 h        -5.64
18  O=C(c1ccc2ncsc2c1)N1CCC(C(=O)O)(n2cccn2)CC1  cytotoxicity at 70.5 h        -8.58
19  CC(=O)N1CCC2(CCN(CC3CCOC3)C2)CC1 (centres undefined)  cytotoxicity at 70.5 h        -1.33
20  Cc1noc(C)c1CN1CCC2(CC1)NC(=O)CC2c1cnn(C)c1 (centres undefined)  cytotoxicity at 70.5 h        -8.52
21  CCC(C(=O)NCc1ccn(-c2ccc(F)cc2)n1)N1CCCC1=O (centres undefined)  cytotoxicity at 70.5 h         5.43
22             COc1ccc(CCC(=O)Nc2ccncc2C)cc1  cytotoxicity at 70.5 h        -9.71
23  CC(C)CC1SCC(=O)Nc2c1cnn2-c1ccc(F)cc1 (centres undefined)  cytotoxicity at 70.5 h        -6.67
